Quick list: pKi per entry.
# Tested target: human M2 receptor (Homo sapiens (Human))
# Sequence (P08172 whole entry): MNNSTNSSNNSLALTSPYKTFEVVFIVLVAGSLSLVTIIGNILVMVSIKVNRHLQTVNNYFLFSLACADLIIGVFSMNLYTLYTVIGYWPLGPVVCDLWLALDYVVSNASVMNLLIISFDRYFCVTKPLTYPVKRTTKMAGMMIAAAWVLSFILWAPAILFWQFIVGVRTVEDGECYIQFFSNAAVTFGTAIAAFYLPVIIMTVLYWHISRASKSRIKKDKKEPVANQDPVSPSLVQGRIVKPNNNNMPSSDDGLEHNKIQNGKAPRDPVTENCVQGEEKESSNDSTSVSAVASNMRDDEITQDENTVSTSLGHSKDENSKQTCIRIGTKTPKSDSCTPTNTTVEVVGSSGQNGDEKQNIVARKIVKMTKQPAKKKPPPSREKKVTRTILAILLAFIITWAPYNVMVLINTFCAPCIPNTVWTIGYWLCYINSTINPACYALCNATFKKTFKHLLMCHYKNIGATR
# Protocol details: Radioligand (tritiated N-methylscopolamine) binding assay, M2
# Experimental context: CHO cell membranes expressing human M2; 1.5 nM tritiated N-methylscopolamine; 90 min, 37° C.; read-out: Ki against M2 receptor (Table 21, M2)
# Experimental: Binding affinity (Ki) of compounds was measured by inhibition of radioligand binding to membranes from CHO cells expressing human M1, M2, M3, M4 and M5 receptors. […] Harvesting and radioactivity counting was conducted as previously described (see, e.g., Hoare et al., Mol. Pharmacol. 2003 63(3):751-65); Erratum at Mol. Pharmacol. 2005 July; 68(1): 260).
pKi: −log10 of the molar value.
Measured parameter: pKi

C[C@@H]1CN(c2ccc3c(c2)OC(F)(F)O3)CCN1C(=O)NCCC1CCN(Cc2ccccc2)CC1: 7.00 to 8.00
CNc1nc(N2CCN(C(=O)NCCC3CCN(Cc4ccccc4)CC3)[C@H](C)C2)ncc1C#N: 7.00 to 8.00
O=C(NCCC1(CO)CCN(Cc2ccccc2)CC1)C1CCN(c2ccc(OC(F)(F)F)c(F)c2)CC1: 6.00 to 7.00
C[C@@H]1CN(c2nccc(C(F)(F)F)n2)CCN1C(=O)NCCC1CCN(Cc2ccccc2)CC1: 7.00 to 8.00
C[C@@H]1CN(c2ccc(C#N)c(OC(F)(F)F)c2)CCN1C(=O)NCCC1CCN(Cc2ccccc2)CC1: 7.00 to 8.00
O=C(NCCC1CCN(Cc2ccccc2)CC1)c1ccc(-c2ccc(OC(F)(F)F)cc2)cc1 [9-70]: 6.00 to 7.00
C[C@H]1CN(c2ccc(OC(F)(F)F)c(C#N)c2)CCN1C(=O)NCCC1CCN(Cc2ccccc2)CC1: 7.00 to 8.00
COc1cc(N2CCN(C(=O)NCCC3CCN(Cc4ccccc4)CC3)[C@H](C)C2)cc(F)c1C#N: 6.00 to 7.00
C[C@@H]1CN(c2cnc(C(F)(F)F)cn2)C[C@H](C)N1C(=O)NCCC1CCN(Cc2ccccc2)CC1: > 8.00
C[C@@H]1CN(c2cc(F)cc(F)c2)CCN1C(=O)NCCC1CCN(Cc2ccccc2)CC1: 6.00 to 7.00
C[C@@H]1CN(c2cc(F)cc(C#N)c2)CCN1C(=O)NCCC1CCN(Cc2ccccc2)CC1: 6.00 to 7.00
Cc1c(C(=O)NCCC2CCN(Cc3ccccc3)CC2)cnc2cc(-c3cccc(OC(F)(F)F)c3)nn12: 6.00 to 7.00
C[C@@H]1CN(C(=O)NCCC2CCN(Cc3ccccc3)CC2)CCN1c1cc(F)c(F)c(F)c1: 6.00 to 7.00
O=C(NCCC1(O)CCN(Cc2ccccc2)CC1)C1CCN(c2ccc(OC(F)(F)F)c(F)c2)CC1 [9-9]: 6.00 to 7.00
Cc1c(C(=O)NCCC2CCN(Cc3ccccc3)CC2)cnc2cc(-c3cc(F)c(F)c(F)c3)nn12: 6.00 to 7.00
C[C@@H]1CN(c2cc(C(F)(F)F)ccn2)CCN1C(=O)NCCC1CCN(Cc2ccccc2)CC1: 7.00 to 8.00
N#Cc1cc(N2CCC(C(=O)NC[C@@H](O)C3CCN(Cc4ccccc4)CC3)CC2)ccc1F: < 6.00
C[C@@H]1CN(c2cnc(C(F)(F)F)cn2)CCN1C(=O)NCCC1CCN(Cc2ccccc2)CC1: 7.00 to 8.00
C[C@@H]1CN(c2ccc(F)c(C#N)c2)CCN1C(=O)NCCC1(O)CCN(Cc2ccccc2)CC1: < 6.00
COc1cc(N2CCC(C(=O)NCCC3CCN(Cc4ccccc4)CC3)CC2)ccc1OC(F)(F)F: 6.00 to 7.00
C[C@@H]1CN(C(=O)NCCC2CCN(Cc3ccccc3)CC2)CCN1c1ccc(OC(F)(F)F)cc1: 6.00 to 7.00
C[C@@H]1CN(c2ccc(Cl)c(F)c2)CCN1C(=O)NCCC1CCN(Cc2ccccc2)CC1: 7.00 to 8.00
O=C(NCCC1CCN(Cc2ccccc2)CC1)N1CCC(c2ccc(C(F)(F)F)cc2)CC1: 6.00 to 7.00
C[C@@H]1CN(c2cc(F)c(F)c(F)c2)CCN1C(=O)NCCC1CCN(Cc2ccc3[nH]ccc3c2)CC1: > 8.00
C[C@@H]1CN(c2ccc(C(F)(F)F)cc2)CCN1C(=O)NCCC1CCN(Cc2ccccc2)CC1: 7.00 to 8.00
C[C@@H]1CN(c2cc(F)nc(F)c2)CCN1C(=O)NCCC1CCN(Cc2ccccc2)CC1: 7.00 to 8.00
C[C@@H]1CN(c2ccc(OC(F)(F)F)c(C#N)c2)CCN1C(=O)NCCC1(O)CCN(Cc2ccccc2)CC1: 6.00 to 7.00
C[C@@H]1CN(c2ncc(C(F)(F)F)c(N)n2)C[C@@H](C)N1C(=O)NCCC1CCN(Cc2ccccc2)CC1: 7.00 to 8.00
N#Cc1cc(N2CCC(C(=O)NCCC3CCN(Cc4ccccc4)CC3)CC2)ccc1OC(F)(F)F: 7.00 to 8.00
C[C@H]1CN(C(=O)NCCC2CCN(Cc3ccccc3)CC2)CCN1c1cc(F)c(F)c(F)c1: 6.00 to 7.00
C[C@@H]1CN(c2cnc(C#N)nc2)CCN1C(=O)NCCC1CCN(Cc2ccccc2)CC1: 6.00 to 7.00
C[C@@H]1CN(c2ncc(C(F)(F)F)cn2)CCN1C(=O)NCCC1CCN(Cc2ccc(F)cc2)CC1: 7.00 to 8.00
C[C@H]1CN(c2ccc(OC(F)(F)F)cc2)CCN1C(=O)NCCC1CCN(Cc2ccccc2)CC1: 7.00 to 8.00

----------
# Tested target: human M5 receptor (Homo sapiens (Human))
# Sequence (P08912 whole entry): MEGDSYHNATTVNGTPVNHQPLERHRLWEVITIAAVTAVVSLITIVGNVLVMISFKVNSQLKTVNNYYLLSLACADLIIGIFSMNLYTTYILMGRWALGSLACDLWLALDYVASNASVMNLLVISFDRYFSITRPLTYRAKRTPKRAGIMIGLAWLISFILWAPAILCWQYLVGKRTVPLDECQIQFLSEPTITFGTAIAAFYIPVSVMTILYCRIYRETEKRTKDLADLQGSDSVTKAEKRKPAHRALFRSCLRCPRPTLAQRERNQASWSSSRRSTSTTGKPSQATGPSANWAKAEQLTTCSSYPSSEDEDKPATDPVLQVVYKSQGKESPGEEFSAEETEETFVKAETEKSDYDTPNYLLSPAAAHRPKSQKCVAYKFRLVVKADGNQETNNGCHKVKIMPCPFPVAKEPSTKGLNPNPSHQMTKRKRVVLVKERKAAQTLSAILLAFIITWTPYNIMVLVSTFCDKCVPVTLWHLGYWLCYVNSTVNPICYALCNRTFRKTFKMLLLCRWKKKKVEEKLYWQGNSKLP
# Protocol details: Radioligand (tritiated N-methylscopolamine) binding assay, M5
# Experimental context: CHO cell membranes expressing human M5; 1.5 nM tritiated N-methylscopolamine; 90 min, 37° C.; read-out: Ki against M5 receptor (Table 21, M5)
Measured parameter: Ki

C[C@@H]1CN(c2ncc(C#N)c(N)n2)C[C@H](C)N1C(=O)NCCC1CCN(Cc2ccccc2)CC1 [4-54]: > 1000 nM
C[C@H]1CN(c2ccc(C#N)cn2)CCC1C(=O)NCCC1CCN(Cc2ccccc2)CC1 (stereo partly drawn) [10-79]: 100 to 1000 nM
C[C@@H]1CN(c2cc(F)c(OC(F)(F)F)c(F)c2)CCN1C(=O)NCCC1CCN(Cc2ccccc2)CC1 [4-60]: 100 to 1000 nM
O=C(NCCC1CCN(Cc2ccccc2)CC1)C1CCN(c2ccc(C(F)(F)F)cc2)CC1 [10-9]: > 1000 nM
O=C(NCCC1CCN(Cc2ccccc2)CC1)C1CCN(c2ccc3c(c2)OC(F)(F)O3)CC1 [10-5]: > 1000 nM
Cc1c(C(=O)NCCC2CCN(Cc3ccccc3)CC2)cnc2cc(-c3cc(F)cc(F)c3)nn12 [18-5]: > 1000 nM
N#Cc1cc(OC(F)(F)F)cc(N2CCC(C(=O)NCCC3CCN(Cc4ccccc4)CC3)CC2)c1 [10-23]: > 1000 nM
O=C(NCCC1CCN(Cc2ccccc2)CC1)N1CCC(c2ccc(C(F)(F)F)cc2)CC1 [8-1]: 100 to 1000 nM
Cc1c(C(=O)NCCC2CCN(Cc3ccccc3)CC2)cnc2cc(-c3cccc(C(F)(F)F)c3)nn12 [17-1]: > 1000 nM
C[C@@H]1CN(c2ccc(F)c(C#N)c2)CCN1C(=O)NC[C@H](O)C1CCN(Cc2ccccc2)CC1 [7-12]: > 1000 nM
C[C@@H]1CN(c2ncc(C(F)(F)F)cn2)CCN1C(=O)NCCC1CCN(Cc2cccc(C#N)c2)CC1 [6-40]: > 1000 nM
C[C@@H]1CN(c2nc(Cl)cc(C#N)n2)CCN1C(=O)NCCC1CCN(Cc2ccccc2)CC1 [5-5]: > 1000 nM
Cc1ccccc1CN1CCC(CCNC(=O)N2CCN(c3ncc(C(F)(F)F)cn3)C[C@H]2C)CC1 [6-35]: > 1000 nM
C[C@H]1CN(c2ncc(C(F)(F)F)cn2)CCC1C(=O)NCCC1CCN(Cc2ccccc2)CC1 (stereo partly drawn) [20-2]: 100 to 1000 nM
O=C(NCC(O)C1CCN(Cc2ccccc2)CC1)C1CCN(c2ccc(OC(F)(F)F)cc2)CC1 (stereo not drawn) [9-8]: > 1000 nM
Cc1c(C(=O)NCCC2CCN(Cc3ccccc3)CC2)cnc2cc(-c3ccc(F)cc3F)nn12 [18-1]: > 1000 nM
O=C(NCCC1CCN(Cc2ccccc2)CC1)N1CCN(c2ccc(C(F)(F)F)cc2)CC1 [4-76]: > 1000 nM
C[C@H]1CN(c2ncc(C(F)(F)F)cc2F)CCC1C(=O)NCCC1CCN(Cc2ccccc2)CC1 (stereo partly drawn) [10-81]: 100 to 1000 nM
Cc1cc(N2CCC(C(=O)NCCC3CCN(Cc4ccccc4)CC3)CC2)ccc1OC(F)(F)F [10-56]: > 1000 nM
C[C@@H]1CN(c2ncc(C(F)(F)F)c(N)n2)CCN1C(=O)NCCC1CCN(Cc2ccccc2)CC1 [21-17]: 100 to 1000 nM
C[C@@H]1CN(c2ccc(C#N)cn2)C[C@H](C)N1C(=O)NCCC1CCN(Cc2ccccc2)CC1 [3-23]: > 1000 nM
O=C(NCCC1CCN(Cc2ccccc2)CC1)C1CCN(c2ncc(C(F)(F)F)cc2Cl)CC1 [9-63]: 100 to 1000 nM
C[C@@H]1CN(c2nccc(C(F)(F)F)n2)CCN1C(=O)NCCC1CCN(Cc2ccccc2)CC1 [5-8]: > 1000 nM
C[C@@H]1CN(c2ncc(C(F)(F)F)cn2)C[C@H](C)N1C(=O)NCCC1CCN(Cc2ccccc2)CC1 [5-27]: > 1000 nM

Values were extracted from patent US11033539B2.
